Assay protocol: Phase I clinical trial: plasma pharmacokinetics
Format: in vivo, human
Run conditions: human, plasma; oral doses, patients
Measurement type: Tmax

Reported Tmax of "CC(C)n1nc(-c2ccc3oc(N)nc3c2)c2c(N)ncnc21" : 0.5 to 4 h

---

Measurement target: mTOR (Homo sapiens)
Construct: purchased Invitrogen
Assay protocol: mTOR kinase inhibition assay
Format: biochemical
Run conditions: Table 2; read-out: mTORC IC50
pIC50: −log10 of the molar value.
Provide the recorded pIC50 for the entries that follow.

Reported pIC50 of COc1cnc2[nH]c(-c3nn(C(C)C)c4ncnc(N)c34)cc2c1 [Compound 19] : < 6.30

Reported pIC50 of COc1ccc2cc(-c3nn(C(C)C)c4ncnc(N)c34)[nH]c2c1 [Compound 8] : < 6.30

Reported pIC50 of Nc1ncnc2c1c(-c1cc3cccc(O)c3[nH]1)nn2C1CCOCC1 [Compound 62] : > 8.30

Reported pIC50 of Nc1ncnc2c1c(-c1cc3cc(O)ccc3[nH]1)nn2CC(=O)N1CCOCC1 [Compound 34] : < 6.30

Reported pIC50 of Nc1ncnc2c1c(-c1cc3cc(O)ccc3[nH]1)nn2C1CCC1 [Compound 27] : 7.60 to 8.00

Reported pIC50 of COc1cccc2cc(-c3nn(C4CCN(C(=O)C5CC5)CC4)c4ncnc(N)c34)[nH]c12 [Compound 66] : < 6.30

Reported pIC50 of CC(C)n1nc(-c2cc3ccc(C#N)cc3[nH]2)c2c(N)ncnc21 [Compound 24] : < 6.30

Reported pIC50 of CNC(=O)Cn1nc(-c2cc3cc(O)ccc3[nH]2)c2c(N)ncnc21 [Compound 35] : < 6.30

Reported pIC50 of CC(C)n1nc(-c2cc3c(Cl)ccc(O)c3[nH]2)c2c(N)ncnc21 [Compound 39] : 8.00 to 8.30

Reported pIC50 of CC(=O)N1CCC(n2nc(-c3cc4cc(O)cc(Cl)c4[nH]3)c3c(N)ncnc32)CC1 [Compound 70] : > 8.30

Reported pIC50 of COc1ccc2cc(-c3nn(C4CCOCC4)c4ncnc(N)c34)[nH]c2c1 [Compound 59] : < 6.30

Reported pIC50 of Nc1ncnc2c1c(-c1cc3cc(O)ccc3[nH]1)nn2C1CCC(N2CCOCC2)CC1 (centres unmarked) [Compound 57] : 7.60 to 8.00

Reported pIC50 of CC(C)n1nc(-c2cc3ccccc3n2C)c2c(N)ncnc21 [Compound 6] : < 6.30

Reported pIC50 of Nc1ncnc2c1c(-c1cc3cc(O)ccc3[nH]1)nn2C1CCN(C(=O)C2CC2)CC1 [Compound 31] : 7.60 to 8.00

Reported pIC50 of Nc1ncnc2c1c(-c1cc3cc(O)ccc3[nH]1)nn2Cc1cccnc1 [Compound 38] : 6.30 to 7.00

Reported pIC50 of CC(C)n1nc(-c2cc3cc(F)ccc3[nH]2)c2c(N)ncnc21 [Compound 3] : 6.30 to 7.00

Reported pIC50 of COc1cccc2cc(-c3nn(C4CCOCC4)c4ncnc(N)c34)[nH]c12 [Compound 63] : > 8.30

Reported pIC50 of CC(C)n1nc(-c2cc3cc(C(N)=O)ccc3[nH]2)c2c(N)ncnc21 [Compound 23] : < 6.30

Reported pIC50 of Cc1nccn1CCn1nc(-c2cc3cc(O)ccc3[nH]2)c2c(N)ncnc21 [Compound 44] : 7.00 to 7.30

Reported pIC50 of CC(C)N1CCC(n2nc(-c3cc4cccc(O)c4[nH]3)c3c(N)ncnc32)CC1 [Compound 64] : 7.60 to 8.00

Reported pIC50 of COCCn1nc(-c2cc3cc(O)ccc3[nH]2)c2c(N)ncnc21 [Compound 40] : 7.00 to 7.30

Reported pIC50 of Nc1ncnc2c1c(-c1cc3cc(O)ccc3[nH]1)nn2C1CC(O)C1 (centres unmarked) [Compound 54] : 7.60 to 8.00

Reported pIC50 of CC(C)n1nc(-c2cc3c(O)cccc3[nH]2)c2c(N)ncnc21 [Compound 37] : < 6.30

Reported pIC50 of CC(C)N1CCC(n2nc(-c3cc4cc(O)cc(Cl)c4[nH]3)c3c(N)ncnc32)CC1 [Compound 56] : < 6.30

Reported pIC50 of CC(C)n1nc(-c2cc3c(Cl)cccc3[nH]2)c2c(N)ncnc21 [Compound 9] : 7.30 to 7.60

Reported pIC50 of Nc1ncnc2c1c(-c1cc3cccc(O)c3[nH]1)nn2C1CCN(C(=O)C2CC2)CC1 [Compound 41] : 8.00 to 8.30

Reported pIC50 of CC(C)n1nc(-c2cc3cc(C#N)ccc3[nH]2)c2c(N)ncnc21 [Compound 4] : < 6.30

Reported pIC50 of COc1cc(Cl)c2[nH]c(-c3nn(C(C)C)c4ncnc(N)c34)cc2c1 [Compound 13] : < 6.30

Reported pIC50 of Nc1ncnc2c1c(-c1cc3ccc(O)cc3[nH]1)nn2C1CCOCC1 [Compound 60] : 7.00 to 7.30

Reported pIC50 of CC(=O)N1CCC(n2nc(-c3cc4cc(O)ccc4[nH]3)c3c(N)ncnc32)CC1 [Compound 30] : 7.60 to 8.00

Reported pIC50 of COc1ccc(Cl)c2cc(-c3nn(C4CCOCC4)c4ncnc(N)c34)[nH]c12 [Compound 61] : 7.60 to 8.00

Reported pIC50 of Nc1ncnc2c1c(-c1cc3cccc(Cl)c3[nH]1)nn2C1CCOCC1 [Compound 51] : 7.30 to 7.60

Reported pIC50 of COc1cc2cc(-c3nn(C(C)C)c4ncnc(N)c34)[nH]c2cc1Cl [Compound 29] : < 6.30

Reported pIC50 of CC(C)n1nc(-c2cc3cc(Cl)ccc3[nH]2)c2c(N)ncnc21 [Compound 17] : < 6.30

Reported pIC50 of CC(C)n1nc(-c2cc3cnccc3[nH]2)c2c(N)ncnc21 [Compound 20] : < 6.30
